All figures here come from patent US11873295B2.

target: human full length PIK3KA H1047R mutant (p110α/p85α complex) (Homo sapiens, UniProt P42336, H1047R); construct: Recombinant, catalytically active human full length PIK3KA Wild-type and H1047R mutant were purchased as 1:1 complex; 6xHis (N); purchased EMD Millipore Sigma 14-792M; test: PI3K-alpha kinase (PIK3CA) biochemical activity, H1047R mutant, ADP-Glo; conditions: PI3K-α (PIK3CA) biochemical, H1047R mutant, Soy PI lipid substrate
Sequence (P42336 whole entry H1047R): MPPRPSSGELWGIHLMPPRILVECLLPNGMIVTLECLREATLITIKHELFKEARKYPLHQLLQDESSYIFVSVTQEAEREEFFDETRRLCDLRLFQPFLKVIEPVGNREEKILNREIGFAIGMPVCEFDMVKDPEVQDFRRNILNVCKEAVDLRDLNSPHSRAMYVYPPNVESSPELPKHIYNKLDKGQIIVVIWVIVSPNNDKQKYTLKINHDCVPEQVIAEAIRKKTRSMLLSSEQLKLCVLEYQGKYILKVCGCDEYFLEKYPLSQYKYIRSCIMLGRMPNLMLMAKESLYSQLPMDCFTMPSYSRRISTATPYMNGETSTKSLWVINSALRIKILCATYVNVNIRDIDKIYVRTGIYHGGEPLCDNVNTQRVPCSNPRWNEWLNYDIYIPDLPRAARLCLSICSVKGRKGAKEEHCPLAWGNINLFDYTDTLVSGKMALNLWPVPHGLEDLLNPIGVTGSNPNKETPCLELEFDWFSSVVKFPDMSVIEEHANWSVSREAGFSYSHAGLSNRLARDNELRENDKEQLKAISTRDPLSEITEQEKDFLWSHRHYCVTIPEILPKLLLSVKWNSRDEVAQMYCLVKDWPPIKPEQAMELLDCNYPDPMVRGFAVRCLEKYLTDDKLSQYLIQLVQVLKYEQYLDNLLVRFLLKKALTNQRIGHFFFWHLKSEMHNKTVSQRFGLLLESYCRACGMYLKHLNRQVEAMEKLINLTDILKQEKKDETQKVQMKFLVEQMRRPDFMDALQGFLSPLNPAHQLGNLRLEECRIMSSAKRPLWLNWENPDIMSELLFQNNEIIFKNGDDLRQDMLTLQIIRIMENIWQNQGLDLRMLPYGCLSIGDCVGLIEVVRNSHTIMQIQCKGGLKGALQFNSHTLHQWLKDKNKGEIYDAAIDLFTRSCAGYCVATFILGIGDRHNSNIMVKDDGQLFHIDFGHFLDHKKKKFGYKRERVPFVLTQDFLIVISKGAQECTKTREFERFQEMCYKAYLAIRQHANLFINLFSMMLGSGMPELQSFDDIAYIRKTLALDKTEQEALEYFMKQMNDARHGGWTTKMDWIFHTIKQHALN
Sequence (P27986 whole entry partner): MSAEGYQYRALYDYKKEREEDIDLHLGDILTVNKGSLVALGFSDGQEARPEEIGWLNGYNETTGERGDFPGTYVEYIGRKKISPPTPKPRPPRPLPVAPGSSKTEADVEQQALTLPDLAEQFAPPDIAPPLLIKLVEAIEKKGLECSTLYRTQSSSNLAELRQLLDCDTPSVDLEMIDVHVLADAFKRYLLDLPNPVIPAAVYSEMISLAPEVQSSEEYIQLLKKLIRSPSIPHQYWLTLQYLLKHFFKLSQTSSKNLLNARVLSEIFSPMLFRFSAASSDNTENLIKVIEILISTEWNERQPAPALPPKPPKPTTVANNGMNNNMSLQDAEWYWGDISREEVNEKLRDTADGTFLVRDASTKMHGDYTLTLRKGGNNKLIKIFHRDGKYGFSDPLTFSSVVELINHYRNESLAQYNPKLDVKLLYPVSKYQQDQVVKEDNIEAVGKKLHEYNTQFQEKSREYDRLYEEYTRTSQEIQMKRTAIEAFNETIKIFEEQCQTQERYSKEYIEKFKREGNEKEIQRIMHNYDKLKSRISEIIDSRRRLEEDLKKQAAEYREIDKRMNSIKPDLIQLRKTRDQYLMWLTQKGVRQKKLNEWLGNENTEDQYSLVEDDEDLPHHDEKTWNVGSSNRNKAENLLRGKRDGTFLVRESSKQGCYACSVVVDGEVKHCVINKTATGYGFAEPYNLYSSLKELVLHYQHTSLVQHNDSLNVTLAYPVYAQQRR
pIC50: −log10 of the molar value.
RECORDED_ENDPOINT: pIC50

[[record]]
molecule = "Cc1cc(C(C)Nc2ccccc2C(=O)O)c2oc(-c3cccc(C(C)(C)C#N)c3)cc(=O)c2c1 (single isomer, unassigned; isomer 1) [Example 4]"
value = "< 5.00"

[[record]]
molecule = "Cc1cc([C@@H](C)Nc2ccccc2C(=O)O)c2oc(-c3ccc(-c4cn[nH]c4)cc3)c(C)c(=O)c2c1"
value = "> 6.30"

[[record]]
molecule = "C[C@@H](Nc1ccc(Cl)nc1C(=O)O)c1cc(C(F)(F)F)cc2c(=O)cc(-c3ccccc3)oc12"
value = "> 6.30"

[[record]]
molecule = "Cc1cc([C@@H](C)Nc2ccc(C#N)cc2C(=O)O)c2oc(-c3ccccc3)c(C)c(=O)c2c1 (single isomer, unassigned; isomer 1) [Example 157]"
value = "5.00 to 5.30"

[[record]]
molecule = "Cc1cc(C(C)Nc2cccc(F)c2C(=O)O)c2oc(-c3ccccc3F)c(C)c(=O)c2c1 (single isomer, unassigned; isomer 2) [Example 104]"
value = "6.00 to 6.30"


Consider the record given below.
Ask: Look up and report measured pIC50 for this entry: Cc1cc([C@@H](C)Nc2ccc(C(F)(F)F)nc2C(=O)O)c2oc(-c3cccc(C#N)c3)c(C)c(=O)c2c1
Reply: > 6.30
